All values here come from patent US8278311B2.

target: histamine H4 receptor (Homo sapiens, UniProt Q9H3N8); construct: expressed in transfected cells; assay: 3H-histamine competition binding assay
Sequence (Q9H3N8 whole entry, species assumed): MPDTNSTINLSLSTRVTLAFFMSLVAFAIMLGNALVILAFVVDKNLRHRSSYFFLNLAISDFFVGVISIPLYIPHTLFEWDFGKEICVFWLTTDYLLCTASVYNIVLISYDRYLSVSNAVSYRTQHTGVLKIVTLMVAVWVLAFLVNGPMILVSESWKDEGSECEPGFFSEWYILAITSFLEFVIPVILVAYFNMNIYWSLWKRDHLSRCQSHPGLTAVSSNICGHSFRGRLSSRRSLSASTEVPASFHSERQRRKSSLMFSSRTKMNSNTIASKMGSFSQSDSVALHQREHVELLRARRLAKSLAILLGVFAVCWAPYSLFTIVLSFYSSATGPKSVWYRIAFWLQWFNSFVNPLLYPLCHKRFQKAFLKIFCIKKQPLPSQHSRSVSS
quantity-kind: pKi
Answers are plain numbers, as −log10 of the molar value.

Report pKi from histamine H4 receptor (Homo sapiens, UniProt Q9H3N8) testing of Nc1nc2c(c(N3CC4CCCNC4C3)n1)CCC1CCCCC21 (stereo not shown)
8.59

* * *

Target: histamine H4 receptor (Homo sapiens)
Construct: expressed in transfected cells
Assay: in vitro assay of histamine H4 activity using FLIPR-Ca+2 flux
Type: cell-based
Settings: HEK-293 cells stably expressing histamine H4 receptor and Gαqi5, Fluo-4; Kb for antagonists and inverse agonists, EC50 for partial agonists
Description: There are many methods available to show the effectiveness of compounds as histamine H4 receptor ligands. Histamine H4 receptors from mammalian species have been cloned. […] In the case of partial agonist or agonist ligands, addition of compound to the cells leads to the increase in intracellular Ca^+2 which is detected by FLIPR (Fluorescence Imaging Plate Reader; Molecular Devices, Sunnyvale, Calif.) technology. […]
quantity-kind: Potency (nM)
One number for each entry, in nM.

Example results:
Nc1nc(N2C[C@H]3CNC[C@H]32)c2ccc3c(c2n1)C1CCCCC1O3 (some centres unmarked)	61.7
Nc1nc(N2CC[C@@H](N)C2)c2ccc3c(c2n1)C1CCCCC1O3 (some centres unmarked)	4.1
Nc1nc2c(c(N3CCNCC3)n1)CCC1=C2[C@H]2CCCC[C@H]2O1 (single isomer, unassigned)	4.5
Nc1nc2c(c(N3CCNCC3)n1)CCCC1C3C=CC(CC3)C21 (centres unmarked)	60.3
Nc1nc2c(c(N3C[C@H]4CCCN[C@H]4C3)n1)CC[C@@H]1CCCC[C@H]21 (relative stereo)	8.3
Nc1nc2c(c(N3CCCNCC3)n1)CCC1=C2C2CCCCC2O1 (centres unmarked)	16
Nc1nc2c(c(N3CC[C@@H](N)C3)n1)CC[C@@H]1CCCC[C@H]21 (mixture of isomers)	1.4

Given the molecule CN[C@@H]1CCN(c2nc(N)nc3c2CC[C@@H]2CCCC[C@H]32)C1 (mixture of isomers) , write its reported Potency.
1.6
